Readings of IC50 for the listed compounds
target: MK-3 (Homo sapiens); experiment: MK-3 inhibition IC50 (similar method to MK-2, with appropriate modifications); assay type: biochemical; details: Table 2, pyrazolylpyrazole MK-2 inhibitors; read-out: MK-3 Avg. IC50
Sequence (Q16644 whole entry, species assumed): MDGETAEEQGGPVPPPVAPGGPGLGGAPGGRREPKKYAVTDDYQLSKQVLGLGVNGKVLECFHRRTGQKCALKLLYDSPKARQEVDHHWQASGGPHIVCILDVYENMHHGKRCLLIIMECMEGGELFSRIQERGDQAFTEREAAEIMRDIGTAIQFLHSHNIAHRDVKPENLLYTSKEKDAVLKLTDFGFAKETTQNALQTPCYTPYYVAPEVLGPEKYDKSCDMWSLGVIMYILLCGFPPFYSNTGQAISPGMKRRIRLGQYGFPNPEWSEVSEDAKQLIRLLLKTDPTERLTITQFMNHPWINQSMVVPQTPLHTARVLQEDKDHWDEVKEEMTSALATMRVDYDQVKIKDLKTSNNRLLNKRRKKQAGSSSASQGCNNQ

{"compound": "NC(=O)c1nn(-c2ccccc2)c2c1CCc1[nH]ncc1-2 [Example 29]", "units-of-measure": "µM", "cmp": "≥", "IC50": 200}
{"compound": "O=C(O)c1c2c(nn1CCCNCCc1ccc(Br)cc1)-c1cn[nH]c1CC2 [Example 3]", "units-of-measure": "µM", "cmp": "=", "IC50": 20.8}
{"compound": "CSc1n[nH]c2c1-c1nn3c(c1CC2)C(=O)NCCC3 [Example 11]", "units-of-measure": "µM", "cmp": "≥", "IC50": 200}
{"compound": "NC(=O)c1[nH]nc2c1CCc1c-2cnn1CCO [Example 70]", "units-of-measure": "µM", "cmp": "≥", "IC50": 200}
{"compound": "O=C1NCCCn2nc3c(c21)CCc1[nH]ncc1-3 [Example 13]", "units-of-measure": "µM", "cmp": "=", "IC50": 144}
